- tgt: TAK1-TAB1 fusion protein (Homo sapiens)
- Construct: purchased Carna
- Sequence (O43318 with tags, fused parts or gaps limits assumed): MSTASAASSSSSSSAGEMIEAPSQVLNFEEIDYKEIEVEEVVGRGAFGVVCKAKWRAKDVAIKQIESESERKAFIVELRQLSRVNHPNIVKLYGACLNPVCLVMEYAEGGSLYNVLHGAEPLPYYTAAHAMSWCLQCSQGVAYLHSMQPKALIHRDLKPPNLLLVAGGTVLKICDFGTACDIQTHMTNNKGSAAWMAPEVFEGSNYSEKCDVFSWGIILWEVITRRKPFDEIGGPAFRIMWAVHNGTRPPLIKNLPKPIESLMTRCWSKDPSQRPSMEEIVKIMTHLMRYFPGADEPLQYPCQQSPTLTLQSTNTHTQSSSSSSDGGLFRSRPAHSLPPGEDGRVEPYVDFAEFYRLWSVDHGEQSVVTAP
- assay: TAK1 biochemical assay (AlphaScreen, GST-MAP2K7 substrate)
- assayContext: TAK1-TAB1 fusion protein, GST-MAP2K7 substrate; read-out: mean TAK1 IC50 (Col. A)
pIC50: −log10 of the molar value.
recordedEndpoint: pIC50

Consider the worked cases shown below.
INSERT INTO measurements (chemicalstructure, result) VALUES
  ('CC(=O)N1CCC(n2cc(-c3cnc(N)c4oc(-c5ccc(O)cc5)cc34)cn2)CC1', '6.00 to 7.00'),
  ('CC(=O)N1CCC(n2cc(-c3cnc(N)c4oc(-c5ccccc5CC#N)cc34)cn2)CC1', '6.00 to 7.00'),
  ('CC(=O)N1CCC(n2cc(-c3cnc(N)c4oc(C5CCCC5)cc34)cn2)CC1', '5.00 to 6.00'),
  ('CC(=O)N1CCC(n2cc(-c3cnc(N)c4oc(-c5ccc(N)cc5)cc34)cn2)CC1', '5.00 to 6.00');

Asked: # input molecule: CC(=O)N1CCC(n2cc(-c3cnc(N)c4oc(-c5ccccc5CO)cc34)cn2)CC1 ; wanted: its pIC50
Given back: 6.00 to 7.00

Asked: # input molecule: Nc1ncc(-c2cnn(C3CCCCC3)c2)c2cc(-c3c[nH]c4cnccc34)oc12 ; wanted: its pIC50
Given back: > 7.00

Asked: # input molecule: Nc1ncc(-c2cnn(C3CCNCC3)c2)c2cc(-c3ccn[nH]3)oc12 ; wanted: its pIC50
Given back: 5.00 to 6.00

Asked: # input molecule: COCCN1CCC(n2cc(-c3cnc(N)c4oc(-c5cccc6cnccc56)cc34)cn2)CC1 ; wanted: its pIC50
Given back: 6.00 to 7.00

Asked: # input molecule: CC(=O)N1CCC(n2cc(-c3cnc(N)c4oc(-c5cccc6[nH]ncc56)cc34)cn2)CC1 ; wanted: its pIC50
Given back: > 7.00

Asked: # input molecule: Nc1ncc(-c2cnn(C3CCNCC3)c2)c2cc(-c3cccc4cccnc34)oc12 ; wanted: its pIC50
Given back: 5.00 to 6.00

Asked: # input molecule: Nc1ncc(-c2cnn(C3CCNCC3)c2)c2cc(-c3cccnc3)oc12 ; wanted: its pIC50
Given back: 5.00 to 6.00

Asked: # input molecule: Nc1ncc(-c2ccc(C(=O)O)s2)c2cc(-c3csc4cnccc34)oc12 ; wanted: its pIC50
Given back: 5.00 to 6.00

Asked: # input molecule: Nc1ncc(-c2cnn([C@@H]3C[C@H]4CC[C@@H](C3)N4)c2)c2cc(-c3csc4cnccc34)oc12 ; wanted: its pIC50
Given back: > 7.00

Asked: # input molecule: CNc1ncc(-c2cnn(C3CCN(C(C)=O)CC3)c2)c2cc(-c3cccc4nnsc34)oc12 ; wanted: its pIC50
Given back: > 7.00

Asked: # input molecule: CC(=O)N1CCC(n2cc(-c3cnc(N)c4oc(-c5cccc6nn(C)cc56)cc34)cn2)CC1 ; wanted: its pIC50
Given back: 5.00 to 6.00

Asked: # input molecule: Nc1ncc(-c2cnn([C@H]3CC[C@H](O)CC3)c2)c2cc(-c3ccc4c(c3)C(=O)NC4)oc12 ; wanted: its pIC50
Given back: 6.00 to 7.00
